Please go through the items and note down their growth inhibition by drug alone.
system: U-2932; assay: growth inhibition by drug alone (1 - RLU/untreated control) (fraction); higher = stronger inhibition; conditions: 10 nM; time (day): 3; 177Lu-lilotomab satetraxetan 0 ug/ml
Structures can show the parent of a compound that is named as a salt.
One number for each entry.

May I ask what growth inhibition by drug alone has been recorded for Cc1ccc(S(=O)(=O)C=CC#N)cc1 ? 0.107

May I ask what growth inhibition by drug alone has been recorded for O=C(O)c1ccc2cc(-c3ccc(O)c(C45CC6CC(CC(C6)C4)C5)c3)ccc2c1 ? 0.159

May I ask what growth inhibition by drug alone has been recorded for CCN[C@H]1C[C@H](C)S(=O)(=O)c2sc(S(N)(=O)=O)cc21 [Dorzolamide HCL] ? -0.0781

May I ask what growth inhibition by drug alone has been recorded for O=c1oc2c(O)c(O)cc3c(=O)oc4c(O)c(O)cc1c4c23 ? -0.0386

May I ask what growth inhibition by drug alone has been recorded for COc1cc(Nc2c(C#N)cnc3cc(OCCCN4CCN(C)CC4)c(OC)cc23)c(Cl)cc1Cl [Bosutinib (SKI-606)] ? 0.086

Batch request: growth inhibition by drug alone per item, same order as input.
1. Clc1ccc(Nc2nnc(Cc3ccncc3)c3ccccc23)cc1 [Vatalanib dihydrochloride (PTK787)]
2. CC(C)C[C@H](NC(=O)[C@@H](O)[C@H](N)Cc1ccccc1)C(=O)O
3. CCc1c2c(nc3ccc(OC(=O)N4CCC(N5CCCCC5)CC4)cc13)-c1cc3c(c(=O)n1C2)COC(=O)[C@]3(O)CC [Irinotecan HCl Trihydrate (Campto)]

1. 0.0493
2. 0.0863
3. -0.0148
